Test: Viability qHTS for spleen associated tyrosine kinase inhibitor (SYKi) naive MV4-11 cells (AID 1963823); also: nearly all actives have a fitted effect of over 40% in size; also: potency is read from the fitted curve at half-maximal effect
Settings: MV4-11 AML viability, CellTiter-Glo luminescence, 72 h; series mostly up to 45 µM
Records with an inconclusive call do not appear. Calls of active or inactive are those of the source. Calls follow the shape of the dose curve; as a rule, active = well fitted cell-killing curve with a large enough effect; inconclusive = small, poorly fitted or top-dose-only effect, or effect the other way; inactive = no such curve, though single readings can be large or run the other way.
QUANTITY NAME: Potency

- COMPOUND: "C[C@@]1(c2ncncc2F)NC(=O)c2cc(-c3cn[nH]c3)ccc21"
  QUANTITY NAME: "Potency"
  OBSERVED RESULT: "16600 nM (active)"
- COMPOUND: "CC[C@]12C=CCN3CC[C@@]4(c5cc([C@@]6(C(=O)OC)C[C@H]7C[C@@H](C(C)(F)F)CN(Cc8c6[nH]c6ccccc86)C7)c(OC)cc5N(C)[C@H]4[C@@](O)(C(=O)OC)[C@@H]1OC(C)=O)[C@@H]32"
  QUANTITY NAME: "Potency"
  OBSERVED RESULT: "55.5 nM (active)"
- COMPOUND: "Nc1nc2c(ncn2CCC(CO)CO)c(=O)[nH]1"
  QUANTITY NAME: "Potency"
  OBSERVED RESULT: "inactive"
- COMPOUND: "O=S(=O)(c1cccc2ccccc12)n1ccc2ccc(N3CCN4CCCC4C3)cc21 (stereo unspecified)"
  QUANTITY NAME: "Potency"
  OBSERVED RESULT: "23100 nM (active)"

Below: the item to evaluate.
Input: Entry under review: "CCNC(=O)Nc1ncc(-c2cc(-c3c(C)cc(OC)cc3C)nc(-c3cnccn3)n2)s1" . Reported Potency?
Output: inactive

---

Test: Quantitative highthroughput screen to assess conditional lethalithy of SEM cells grown in RPMI1640 with unreated serum (RPMI+s) (AID 1963883); also: nearly all actives have a fitted effect of over 35% in size; also: potency is read from the fitted curve at half-maximal effect;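 as to viability: 100% = DMSO wells and 0% = empty wells without cells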
Settings: SEM B-ALL cells, CellTiter-Glo viability, 48 h; series mostly up to 45.8 µM
Records with an inconclusive call do not appear. Active and inactive are the calls of the source. The call rests on the fitted dose curve; in most records, active means well fitted cell-killing curve with a large enough effect; inconclusive means small, poorly fitted or top-dose-only effect, or effect the other way; inactive means no such curve, though single readings can be large or run the other way.
QUANTITY NAME: Potency

# example entries with known answers
- COMPOUND: "CC(=O)OCC(=O)[C@@]1(O)CC[C@H]2[C@@H]3CCC4=CC(=O)CC[C@]4(C)[C@@H]3C(=O)C[C@@]21C"
  Potency: "inactive"
- COMPOUND: "Cc1cc(CS(=O)(=O)c2ccccc2)cc(OCc2ccc(CN3CCC[C@H]3CO)cc2)c1"
  Potency: "332 nM (active)"
- COMPOUND: "O=C(Nc1cc2cc[nH]c2cn1)c1ccccc1"
  Potency: "2960 nM (active)"
- COMPOUND: "COc1cc2ncnc(Nc3cc(Br)c(O)c(Br)c3)c2cc1OC"
  Potency: "inactive"

Turning now to a further compound:
Input: Would you kindly share the measured Potency for COc1cc(-c2nn(C3CCC(N4CCN(C(C)=O)CC4)CC3)c3ncnc(N)c23)ccc1NC(=O)c1cc2ccccc2n1C (stereo not given) ?
Output: inactive

---

Assay: Viability qHTS for spleen associated tyrosine kinase inhibitor (SYKi) drug resistant MV4-11 cells (AID 1963824); also: nearly all actives have a fitted effect of over 35% in size
Conditions: SYKi-resistant MV4-11 viability, CellTiter-Glo, 72 h; series mostly up to 45 µM
Method: Department of Medicine, Hematology/Oncology University Hospital Frankfurt, Germany. Trials have shown promising clinical activity of the selective SYK inhibitor entospletinib in patients with high expressing HOXA9/MEIS1 acute leukemias. […] 7; Detection; Luminescence; ViewLux plate reader (PerkinElmer). […] 1. Quantitative high-throughput screening (qHTS) of small molecule compounds was conducted on drug resistant SYKi MV4-11 cell line. […] 7. Luminescence was measured on a ViewLux plate reader (PerkinElmer).
Inconclusive results are not listed. The source made the active and inactive calls. Calls come from the whole dose curve; as a rule, active = well fitted cell-killing curve with a large enough effect; inconclusive = small, poorly fitted or top-dose-only effect, or effect the other way; inactive = no such curve, though single readings can be large or run the other way.
# output must be one of 1 = active, -1 = inactive

Input: Called result for "Nc1nc(COC(=O)c2ccc([N+](=O)[O-])cc2)nc(Nc2ccccc2)n1"
Output: -1

Input: Which outcome was entered for the molecule CC(=O)O[C@@H]1C[C@H](O)[C@@]23CO[C@H](O)[C@]1(C)C2C[C@@H](O)[C@]1(C)C3C(=O)[C@H](OC(C)=O)[C@@]2(C)[C@H](c3ccoc3)C[C@H]3O[C@]321 (some centres not stated) in this test?
Output: 1

Input: Recorded test call requested for "NS(=O)(=O)c1cc(Cl)c(Cl)c(S(N)(=O)=O)c1"
Output: -1

Input: What is the recorded call for this molecule in the test? "Cc1ccccc1-n1c([C@H](C)Nc2nc(N)nc3nc[nH]c23)nc2cccc(C)c2c1=O"
Output: 1

Input: Record lookup: outcome of this test for "Clc1cc2c(NC3CCCC3)nnc(-c3ccncc3)c2cc1Cl" ?
Output: 1

Input: Which outcome was assigned to "O=C(O)Cc1ccccc1Oc1ccc(Cl)cc1Cl" in this test?
Output: -1

Input: Please share the test call associated with "CCC(=O)OCC(=O)[C@@]1(OC(=O)CC)[C@@H](C)C[C@H]2[C@@H]3CCC4=CC(=O)C=C[C@]4(C)[C@@]3(F)[C@@H](O)C[C@@]21C" .
Output: 1

Input: Short answer needed: outcome of this test for CN(C)c1nc(NC2CCC(NC(=O)c3ccc(F)c(F)c3)CC2)nc2ccccc12 (configuration not stated) ?
Output: 1

Input: Per the assay record, what outcome was assigned to CN1CCCC(n2nc(Cc3ccc(Cl)cc3)c3ccccc3c2=O)CC1 (configuration not stated) ?
Output: 1

Input: Which outcome was entered for the molecule "O=c1ccc2ccccc2o1" in this test?
Output: -1

Input: Tell me the recorded outcome of this test for "O=C(NCCN1CCOCC1)c1ccc(Cl)cc1" .
Output: -1

Input: What was the test verdict on Cc1c(-c2ccc3c(c2)OCO3)oc2ccc(C(O)C(C)O)cc12 (configuration not stated) ?
Output: 1

Input: What outcome does the record of this test show for "Cc1ccc(-n2nc(C(C)(C)C)cc2NC(=O)NCc2cc(F)ccc2Oc2ccc3c(cnn3CCO)c2)cc1" ?
Output: 1

Input: Hi, do you know how "CC(=O)N[C@H](Cc1ccc2ccccc2c1)C(=O)N[C@H](Cc1ccc(Cl)cc1)C(=O)N[C@H](Cc1cccnc1)C(=O)N[C@@H](CO)C(=O)N[C@@H](Cc1ccc(O)cc1)C(=O)N[C@H](CCCNC(N)=O)C(=O)N[C@@H](CC(C)C)C(=O)N[C@@H](CCCN=C(N)N)C(=O)N1CCC[C@H]1C(=O)N[C@H](C)C(N)=O" came out in this test?
Output: -1

Input: Please indicate how the test categorized "COc1cccc(OC)c1-c1ccc(C[C@H](NC(=O)c2c(Cl)cccc2Cl)C(=O)O)cc1" .
Output: -1

Input: Outcome? C=C1C(=O)O[C@@H]2/C=C(/C)CC3C=C(C[C@H](OC(=O)/C(C)=C\C)[C@@H]12)C(=O)O3 (some centres not stated)
Output: 1

Input: What outcome does the record of this test show for CC1CCC2C(C)(C)C(O)CCC2(C)C12Cc1c(O)cc3c(c1O2)CN(C(CCC(N)=O)C(=O)O)C3=O (configuration not stated) ?
Output: -1
